# targetSystem: full-length WT STING (Homo sapiens, UniProt Q86WV6, H232R)
# Construct: Full-Length STING WT [STING(1-379)H232R-gg-AviTag-gs-; used as a membrane preparation
# Sequence (Q86WV6 with tags, fused parts or gaps H232R): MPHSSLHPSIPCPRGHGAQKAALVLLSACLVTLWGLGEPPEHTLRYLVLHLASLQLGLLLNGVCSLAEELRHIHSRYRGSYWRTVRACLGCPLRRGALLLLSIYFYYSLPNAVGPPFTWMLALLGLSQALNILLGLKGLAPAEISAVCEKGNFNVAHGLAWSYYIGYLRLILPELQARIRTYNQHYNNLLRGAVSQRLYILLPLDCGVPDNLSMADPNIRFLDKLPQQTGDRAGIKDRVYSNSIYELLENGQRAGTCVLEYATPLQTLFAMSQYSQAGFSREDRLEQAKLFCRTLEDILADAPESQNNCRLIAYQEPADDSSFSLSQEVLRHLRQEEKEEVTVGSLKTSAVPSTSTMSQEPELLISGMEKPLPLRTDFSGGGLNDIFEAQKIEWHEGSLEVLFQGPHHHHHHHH
# measurementDescription: 3H-cGAMP filtration binding assay (WT STING)
# conditionLabel: competition with tritiated cGAMP ligand, WT STING membrane
readoutType: pEC50
The quantity pEC50 is defined as the negative base-10 logarithm of the molar concentration.

-- ask Report pEC50 under test system full-length WT STING (Homo sapiens, UniProt Q86WV6, H232R) for Nc1nc2c(ncn2[C@@H]2O[C@@H]3COP(=O)(S)O[C@@H]4C[C@H](n5cnc6c(N)ncnc65)O[C@@H]4COP(=O)(S)O[C@H]2C3)c(=O)[nH]1 (stereo partly shown) .
-- reply 6.93

###

# targetSystem: full-length HAQ STING (Homo sapiens, UniProt Q86WV6, G230A/H232R/R293Q/R71H)
# Construct: Full-Length HAQ STING [STING(1-379)R71H, G230A, H232R,; used as a membrane preparation
# Sequence (Q86WV6 with tags, fused parts or gaps R71H/G230A/H232R/R293Q): as the sequence (Q86WV6 with tags, fused parts or gaps H232R) above, with R71H, G230A, R293Q counted along it
# measurementDescription: 3H-cGAMP filtration binding assay (HAQ STING)
# conditionLabel: competition with tritiated cGAMP ligand, HAQ STING membrane
readoutType: pEC50
The quantity pEC50 is defined as the negative base-10 logarithm of the molar concentration.

-- ask Tell us which pEC50 value is on record for Nc1nc2c(ncn2[C@@H]2O[C@@H]3COP(=O)(S)O[C@@H]4C[C@H](n5cnc6c(N)ncnc65)O[C@@H]4COP(=O)(S)O[C@H]2C3)c(=O)[nH]1 (stereo partly shown)
-- reply 7.31
